Target: kinase-domain human PKCι (Homo sapiens, UniProt P41743)
Construct: Recombinant, kinase-domain human PKCι is expressed and purified in-house; made in house
Sequence (P41743 254-522 limits assumed): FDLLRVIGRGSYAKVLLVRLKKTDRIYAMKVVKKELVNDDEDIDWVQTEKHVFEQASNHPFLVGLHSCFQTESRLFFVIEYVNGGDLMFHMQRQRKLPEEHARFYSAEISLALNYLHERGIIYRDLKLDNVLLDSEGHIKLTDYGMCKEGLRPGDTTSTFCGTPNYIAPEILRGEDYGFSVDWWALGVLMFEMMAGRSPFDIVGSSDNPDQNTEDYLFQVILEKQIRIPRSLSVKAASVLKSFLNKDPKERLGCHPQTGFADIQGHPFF
Test: PKCι IC50 IMAP fluorescence polarisation assay, kinase-domain enzyme
Format: biochemical
Conditions: kinase domain PKCi at 2 μM ATP; read-out: IC50 in IMAP assay against kinase domain PKCi (Activity)
We begin with a simple list: items and their reported IC50.

[
  {
    "molecule": "C[C@H](N)CNc1nc(-c2ccncc2)nc2sc3c(c12)CCCCC3 [compound 88]",
    "system tested": "kinase-domain human PKCι (Homo sapiens, UniProt P41743)",
    "IC50": "100 to 1000 nM"
  },
  {
    "molecule": "c1cc(-c2nc(N3C[C@@H]4C[C@H]3CN4)c3c4c(sc3n2)CCCC4)ccn1 [compound 18]",
    "system tested": "kinase-domain human PKCι (Homo sapiens, UniProt P41743)",
    "IC50": "100 to 1000 nM"
  },
  {
    "molecule": "Cc1sc2nc(-c3ccncc3)nc(NCCN)c2c1C [compound 36]",
    "system tested": "kinase-domain human PKCι (Homo sapiens, UniProt P41743)",
    "IC50": "100 to 1000 nM"
  },
  {
    "molecule": "CC1CCc2c(sc3nc(-c4ccncc4)nc(NC[C@@H](N)Cc4ccccc4)c23)C1 (some centres unmarked) [compound 69]",
    "system tested": "kinase-domain human PKCι (Homo sapiens, UniProt P41743)",
    "IC50": "100 to 1000 nM"
  }
]

Input: What does the record list as IC50 for Cc1ccc(C[C@H](N)COc2nc(-c3ccncc3)nc3sc4c(c23)CCCC4)cc1 [compound 166] ?
Output: 1000 to 10000 nM

###

target: kinase-domain human PKCι (Homo sapiens); construct: Recombinant, kinase-domain human PKCι is expressed and purified in-house; made in house; experiment: PKCι IC50 IMAP fluorescence polarisation assay, kinase-domain enzyme; type: biochemical; conditions: kinase domain PKCi at 2 μM ATP; read-out: IC50 in IMAP assay against kinase domain PKCi
measured parameter: IC50

[
  {
    "structure smiles": "Cc1csc2c(O[C@H]3CCNC3)nc(-c3ccncc3)nc12",
    "IC50": "10 to 40 µM"
  },
  {
    "structure smiles": "Cc1cc(C)c2c(n1)sc1c(N3CCCNCC3)nc(-c3ccncc3)nc12",
    "IC50": "1 to 10 µM"
  },
  {
    "structure smiles": "NCCNc1nc(-c2ccncc2)nc2cc(-c3ccccc3)sc12",
    "IC50": "10 to 40 µM"
  },
  {
    "structure smiles": "Clc1cccc2sc3c(OC[C@H]4CCCN4)nc(-c4ccncc4)nc3c12",
    "IC50": "10 to 40 µM"
  },
  {
    "structure smiles": "Cc1csc2c(N3CCCNCC3)nc(-c3ccncc3)nc12",
    "IC50": "0.1 to 1 µM"
  }
]

Input: Fill in the blank: the reported IC50 of C[C@H](N)CNc1nc(-c2ccncc2)nc2cc(C(C)(C)C)sc12 is ____.
Output: 10 to 40 µM

Input: Dear colleague, I am looking for the recorded IC50 of the following compound: NCCNc1nc(-c2ccncc2)nc2c1sc1cccc(Cl)c12
Output: 0.1 to 1 µM

Input: // query IC50 value for entry Cc1csc2c(NC[C@@H](C)N)nc(-c3ccncc3)nc12
Output: 1 to 10 µM

Input: # lookup: IC50 of Cc1csc2c(NCCN)nc(-c3ccncc3)nc12
Output: 0.1 to 1 µM

Input: Can you look up the measured IC50 of NCCNc1nc(-c2ccncc2)nc2c1sc1ncccc12 for me?
Output: 1 to 10 µM

Input: Can you look up the measured IC50 of Cc1csc2c(NC[C@H](C)N)nc(-c3ccncc3)nc12 for me?
Output: 0.1 to 1 µM

Input: Return reported IC50; argument: C[C@@H](N)CNc1nc(-c2ccncc2)nc2c1sc1cccc(Cl)c12
Output: 0.1 to 1 µM

Input: Would you mind telling me what IC50 value was observed for Cc1csc2c(O[C@@H]3CCNC3)nc(-c3ccncc3)nc12 ?
Output: 1 to 10 µM

Input: Quick check: IC50 of Cc1cc(C)c2c(n1)sc1c(N3CCNCC3)nc(-c3ccncc3)nc12 ?
Output: 1 to 10 µM

Input: Sample Cc1csc2c(OC[C@@H]3CCCN3)nc(-c3ccncc3)nc12 — what was its IC50?
Output: 10 to 40 µM
